- Test system: CEM cells HIV-1 protection, formazan growth assay
- procedure-summary: NCI AIDS Antiviral Assay
- Procedure: The ability of compounds to protect human CEM cells from HIV-1 infection is measured as a screen for new compounds capable of inhibiting the HIV virus. Five concentrations of drug were tested on uninfected and infected cells and cell growth was measured using a soluble formazan assay. […] Compounds that provided at least 50% protection were retested. Compounds that provided at least 50% protection on retest were listed as moderately active. […]
Activity calls are given as the source filed them.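 Rule for the calls: active = compounds giving half or more protection of infected cells from virus-caused growth loss, again on retest; inactive = the rest.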 Where a SMILES comes first, the peptide text is derived from it. The star is where a group is joined. OSu = O=C1CCC(=O)N1O*; Bn = c1ccc(C*)cc1
One label from this list, please: t = active, f = inactive

Consider the following illustrative entries.
CC1=C(C)C(=O)c2c(cc3c4ccccc4ccn23)C1=O | f
COc1ccc(NC(=O)CC/C(CC(=O)c2ccco2)=N/NC(N)=S)cc1 | f
CC(C)(C)C(=O)OCC(COC(=O)C(C)(C)C)[N+](=O)[O-] | f
Cc1ccc(-n2c3nc(=O)n(C)c(=O)c-3nc3ccccc32)c(C)c1 | f
C/C(=N\NC(N)=S)c1cn(C2OC(CO)C(O)C2O)c(=O)[nH]c1=O (stereo not given) | f
CNC(=S)SSSSC(=S)NC | f
CS1(=O)=N/C(=N\C(=O)Nc2ccccc2)c2ccccc21 (stereo not given) | f
Cc1ccc(CN2CC(=O)N3Cc4ccccc4CN3C(=O)C2)cc1 | f
COc1ccc(C(=O)O/N=C2/CCC/C2=C\c2ccccc2)cc1 | f
Cc1cc2c(=O)cc(-c3cccs3)oc2c(C(=O)O)c1C | f

INPUT: Tell me the recorded outcome of this test for NC(Cc1ccc(OCc2ccccc2)cc1)C(=O)NC(Cc1ccccc1)C(=O)ON1C(=O)CCC1=O (stereo not given) (H-Tyr(Bn)-Phe-OSu; configuration not given here) .
OUTPUT: f

INPUT: What is the recorded call for this molecule in the test? Cc1cccc(C2NC(=S)N3C(c4cccc(C)c4)NC(=S)N23)c1 (stereo not given)
OUTPUT: f

Values were extracted from PubChem BioAssay AID179.
